Every entry's value here was drawn from patent US9611232B2.

Quick list: pIC50 per entry.
Target: KCa3.1 (Homo sapiens (Human), UniProt O15554)
Test: Thallium influx assay (FLIPR, FluxOR)
Conditions: CHOK1 cells over-expressing KCa3.1; thallium (3.3 mM)/ionomycin (1 μM) activation
Experimental: The thallium influx assay was performed with CHOK1 cells over-expressing KCa3.1 obtained from Evotec and maintained in MEM Alpha medium supplemented with 10% fetal bovine serum, 100 U/ml penicillin/[…] streptomycin and 250 μg/ml G418. CHOK1 wild type cells were passaged using F12/Ham's medium supplemented with 10% fetal bovine serum, 2 mM glutamine, 100 U/ml penicillin/[…] streptomycin. All cells were cultured in T175 flasks. […]
pIC50: −log10 of the molar value.
Measurement Label: pIC50

• CCOC(=O)CN1C(=O)O[C@@H](c2ccc(F)cc2)[C@H]1c1ccc(F)cc1 (racemic) [Example 34] = 5.17
• CCOC(=O)CN1C(=O)OC(c2ccc(F)cc2)(c2ccc(F)cc2)C1c1cccnc1 (stereo not shown) [Example 26] = 5.04
• CCOC(=O)CN1C(=O)OC(c2cccc(F)c2)(c2cccc(F)c2)[C@@H]1c1ccccc1F [Example 14] = 5.44
• CCOC(=O)CN1C(=O)OC(c2ccccc2F)(c2ccccc2F)[C@@H]1c1ccccc1F [Example 12] = 5.96
• NC(=O)CN1C(=O)OC(c2ccc(F)cc2)(c2ccc(F)cc2)[C@@H]1c1ccccc1Cl [Example 19] = 6.13
• CNC(=O)CN1C(=O)O[C@@H](c2cccc(C(F)(F)F)c2)[C@H]1c1ccc(F)cc1 (racemic) [Example 36] = 5.18
• NC(=O)CN1C(=O)OC(c2ccccc2F)(c2ccccc2F)[C@@H]1c1ccccc1F [Example 13] = 6.47
• CCOC(=O)CN1C(=O)OC(c2ccc(F)cc2)(c2ccc(F)cc2)[C@@H]1C(C)(C)C [Example 35] = 6.35
• N#CCN1C(=O)OC(c2ccc(F)cc2)(c2ccc(F)cc2)[C@@H]1c1ccccc1F [Example 24] = 5.83
• NC(=O)CN1C(=O)OC(c2ccc(F)c(F)c2)(c2ccc(F)c(F)c2)[C@@H]1c1ccccc1 [Example 28] = 6.11
• NC(=O)CN1C(=O)OC(c2ccc(F)cc2)(c2ccc(F)cc2)C1c1cccnc1 (stereo not shown) [Example 27] = 5.17
• COC(=O)CN1C(=O)OC(c2ccc(F)cc2)(c2ccc(F)cc2)[C@@H]1c1ccccc1F [Example 21] = 6.19
• O=C1OC(c2ccc(F)cc2)(c2ccc(F)cc2)[C@H](c2ccccc2F)N1Cc1nnc[nH]1 [Example 25] = 5.00
• Cc1coc(CN2C(=O)O[C@@H](c3cccc(C(F)(F)F)c3)[C@H]2c2ccc(F)cc2)n1 (racemic) [Example 40] = 5.16
• NC(=O)CN1C(=O)OC(c2ccc(F)cc2)(c2ccc(F)cc2)C1c1cccc(F)c1 (stereo not shown) [Example 9] = 5.22
• O=C1O[C@@H](c2cccc(C(F)(F)F)c2)[C@@H](c2ccc(F)cc2)N1Cc1ncco1 (racemic) [Example 39] = 4.96
• CCNC(=O)CN1C(=O)O[C@@H](c2cccc(C(F)(F)F)c2)[C@H]1c1ccc(F)cc1 (racemic) [Example 37] = 5.31
• NC(=O)CN1C(=O)OC(c2ccc(F)cc2)(c2ccc(F)cc2)[C@@H]1c1ccccc1F [Example 11] = 6.60
• CCOC(=O)CN1C(=O)O[C@@H](c2cccc(C(F)(F)F)c2)[C@H]1c1cccc(C(F)(F)F)c1 (racemic) [Example 33] = 5.81
• CCNC(=O)CN1C(=O)OC(c2ccc(F)cc2)(c2ccc(F)cc2)[C@@H]1c1ccccc1F [Example 23] = 5.71
• NC(=O)CN1C(=O)OC(c2ccc(F)cc2)(c2ccc(F)cc2)C1c1ccccn1 (stereo not shown) [Example 30] = 4.76
• NC(=O)CN1C(=O)NC(c2ccc(F)cc2)(c2ccc(F)cc2)[C@@H]1c1ccccc1 [Example 18] = 5.43
• CCOC(=O)CN1C(=O)OC(c2ccccc2)(c2ccccc2)[C@@H]1c1ccccc1F [Example 16] = 6.00
• NC(=O)CN1C(=O)OC(c2ccc(F)cc2)(c2ccc(F)cc2)[C@@H]1c1ccccc1 [Example 1] = 6.07
• NC(=O)CN1C(=O)OC(c2cccc(F)c2)(c2cccc(F)c2)[C@@H]1c1ccccc1F [Example 15] = 6.15
• N#CCN1C(=O)O[C@@H](c2cccc(C(F)(F)F)c2)[C@H]1c1ccc(F)cc1 (racemic) [Example 38] = 5.80
• CCOC(=O)CN1C(=O)OC(c2ccc(F)cc2)(c2ccc(F)cc2)C1c1ccc(F)cc1F (stereo not shown) [Example 4] = 5.50
• CCOC(=O)CN1C(=O)OC(c2ccc(F)cc2)(c2ccc(F)cc2)[C@@H]1c1ccccc1F [Example 10] = 5.72
• NC(=O)CN1C(=O)OC(c2cccc(F)c2)(c2cccc(F)c2)[C@@H]1c1ccccc1 [Example 3] = 6.20
• NC(=O)CN1C(=O)OC(c2ccc(F)cc2)(c2ccc(F)cc2)[C@@H]1c1ccc(F)cc1 [Example 7] = 6.14
• CNC(=O)CN1C(=O)OC(c2ccc(F)cc2)(c2ccc(F)cc2)[C@@H]1c1ccccc1F [Example 22] = 6.22
